Listed here are compounds together with their documented pest or weed control at 500 g/ha.
# System: Ipomoea hederacea (IPOHE)
# Assay protocol: Post-emergence efficacy, Method A
# Assay type: in vivo
# Run conditions: Ipomoea hederacea, post-emergence, 312 h, Application rate 500 g/Ha; evaluated after 13 days; 100=total damage to plant, 0=no damage to plant; read-out: Control of weed species after post-emergence application, IPOHE

# Smiles record, Assayed target, pest or weed control at 500 g/ha / %
data = [
    ("O=S(=O)([O-])CC[n+]1ccc(-c2ncc(C3CC3)cn2)cn1", "Ipomoea hederacea (IPOHE)", 70),
    ("Cc1cccnc1-c1cc[n+](CCC(=O)[O-])nc1", "Ipomoea hederacea (IPOHE)", 10),
    ("O=C([O-])CC[n+]1ccc(-c2ncccc2F)cn1", "Ipomoea hederacea (IPOHE)", 20),
    ("CNC(=O)c1cnc(-c2cc[n+](CCC(=O)[O-])nc2)nc1", "Ipomoea hederacea (IPOHE)", 20),
    ("CCOC(=O)CC[n+]1ccc(-c2ccccn2)cn1", "Ipomoea hederacea (IPOHE)", 20),
]

====

Listed here are compounds together with their documented pest or weed control at 500 g/ha.
# Test system: Digitaria sanguinalis (DIGSA)
# Assay protocol: Post-emergence efficacy, Method A
# Type: in vivo
# Run conditions: Digitaria sanguinalis, post-emergence, 312 h; Application Rate 500 g/Ha; evaluated after 13 days; Method A; read-out: Control of weed species after post-emergence application, DIGSA (100=total damage to plant; 0=no damage to plant)

# Compound, Readout unit, pest or weed control at 500 g/ha
records = [
    ("CCOP(=O)(C[n+]1ccc(-c2ncccn2)cn1)OCC [Compound A230, 2,2,2-trifluoroacetate]", "%", 70),
    ("Cc1cnc(-c2cc[n+](CCC(=O)O)nc2)c(C)c1", "%", 10),
    ("O=S(=O)([O-])OCC[n+]1ccc(-c2ncccn2)cn1", "%", 50),
    ("N#Cc1ccc(-c2cc[n+](CCC(=O)O)nc2)nc1", "%", 30),
    ("O=S(=O)([N-]CC[n+]1ccc(-c2ncccn2)cn1)C(F)(F)F", "%", 60),
    ("CC(CC(=O)O)[n+]1ccc(-c2ccncn2)cn1 (stereo not drawn)", "%", 80),
    ("O=S(=O)(O)CC[n+]1ccc(-c2ccncc2F)cn1", "%", 30),
    ("Cc1ccc(-c2cc[n+](CCS(=O)(=O)[O-])nc2)nc1", "%", 50),
    ("CC(C[n+]1ccc(-c2ncccn2)cn1)NS(=O)(=O)[O-] (stereo not drawn)", "%", 100),
]

====

# System: Chenopodium album (CHEAL)
# Assay protocol: Post-emergence efficacy, Method A
# Assay type: in vivo
# Run conditions: Chenopodium album, post-emergence, 312 h; Application rate 500 g/Ha; evaluated after 13 days; 100=total damage to plant, 0=no damage to plant; read-out: Control of weed species after post-emergence application, CHEAL
We use 50% as the dividing line for pest or weed control at 500 g/ha: on or above the line is rule met, below is rule not met.

# Smiles record, Label value
measured = [
    ("COc1cncc(-c2cc[n+](CCCS(=O)(=O)[O-])nc2)n1", "rule not met"),
    ("O=S(=O)([O-])CC[n+]1ccc(-c2ccc(F)cn2)cn1", "rule not met"),
    ("Cc1cnc(-c2cc[n+](CCS(=O)(=O)[O-])nc2)c(Cl)c1", "rule not met"),
    ("Cc1cc(C)nc(-c2cc[n+](CCS(=O)(=O)[O-])nc2)n1", "rule met"),
    ("COC(=O)c1cnc(-c2cc[n+](CCS(=O)(=O)[O-])nc2)nc1", "rule met"),
    ("CC(=O)c1cnc(-c2cc[n+](CCC(=O)[O-])nc2)nc1", "rule met"),
    ("CS(=O)(=O)NC(=O)CC[n+]1ccc(-c2ncccn2)cn1", "rule not met"),
    ("Nc1cnc(-c2cc[n+](CCC(=O)[O-])nc2)nc1", "rule not met"),
]
